Molecular target: Human plasma kallikrein (Homo sapiens)
Construct: purchased Kordia (Leiden, Netherlands) batch HPKA 1303
Sequence (P03952 391-638 limits assumed): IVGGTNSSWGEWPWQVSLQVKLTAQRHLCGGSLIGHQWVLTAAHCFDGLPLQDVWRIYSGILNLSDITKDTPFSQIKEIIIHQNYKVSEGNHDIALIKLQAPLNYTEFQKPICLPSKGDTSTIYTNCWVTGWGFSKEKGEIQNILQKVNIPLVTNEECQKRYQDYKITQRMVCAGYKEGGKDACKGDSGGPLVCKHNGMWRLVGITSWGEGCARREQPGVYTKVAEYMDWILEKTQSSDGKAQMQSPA
Sequence (P03952 20-390 partner limits assumed): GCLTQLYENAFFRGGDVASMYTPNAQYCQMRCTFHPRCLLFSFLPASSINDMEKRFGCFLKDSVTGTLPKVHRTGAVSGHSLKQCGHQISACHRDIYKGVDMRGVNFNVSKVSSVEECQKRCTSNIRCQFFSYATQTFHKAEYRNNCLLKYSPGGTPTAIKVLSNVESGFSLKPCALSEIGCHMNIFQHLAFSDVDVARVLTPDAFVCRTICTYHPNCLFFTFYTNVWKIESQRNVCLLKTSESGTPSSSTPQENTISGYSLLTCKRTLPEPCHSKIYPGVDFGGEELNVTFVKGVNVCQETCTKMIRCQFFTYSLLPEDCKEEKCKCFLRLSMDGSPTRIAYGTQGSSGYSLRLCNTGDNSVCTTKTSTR
Assay: In vitro inhibition of plasma kallikrein (fluorogenic substrate DPro-Phe-Arg-(Rh110)-γGlu-OH)
Type: biochemical
Conditions: human plasma kallikrein 12 pM, substrate 0.5 μM, 1 hour pre-incubation at room temperature, read after 1 hour
pIC50: −log10 of the molar value.
reported property: pIC50

>  <structure as smiles>
Cc1cc(N)nc(C)c1CNC(=O)c1cc2ccccc2s1

>  <result value>
5.27

$$$$
>  <structure as smiles>
Cc1cc(N)nc(C)c1CNC(=O)c1cc2ccccc2[nH]1

>  <result value>
5.42

$$$$
>  <structure as smiles>
Cc1cc(N)nc(C)c1CNC(=O)c1ccc2ccccc2c1

>  <result value>
5.64

$$$$
>  <structure as smiles>
Cc1cc(N)nc(C)c1CNc1ncc2ccn(Cc3ccc4ccccc4c3)c2n1

>  <result value>
5.79

$$$$

[I] Cc1cc(N)nc(C)c1CNC(=O)c1cc2ccccc2o1
[II] Cc1cc(N)nc(C)c1CNc1ncnc2oc(Cc3c(Cl)cccc3Cl)nc12
[III] CCc1cc2c(NCc3c(C)cc(N)nc3C)ncnc2s1
Task: Order each entry by recorded pIC50, climbing from the minimum. Put the labels in the requested order and list them out.
Result: III, I, II

----------
Target: Human plasma kallikrein (Homo sapiens)
Construct: purchased Kordia (Leiden, Netherlands) batch HPKA 1303
Assay: In vitro inhibition of plasma kallikrein (fluorogenic substrate DPro-Phe-Arg-(Rh110)-γGlu-OH)
Type: biochemical
Settings: the above-described assay (human plasma kallikrein)
reported property: IC50

>  <structure as smiles>
Cc1cc(N)nc(C)c1CNc1ncnc2c1ccn2C

>  <IC50>
> 30 µM

$$$$

Now for the compound whose IC50 we want.
Task: Suppose we examine the compound `COc1cc2ncnc(NCc3c(C)cc(N)nc3C)c2cc1OC` ; what IC50 value has been reported?
Result: > 30 µM
